system: K4 kissing-loop RNA reporter; experiment: apparent KD of K4 kissing-loop reporter; higher = weaker reporter binding; conditions: Eterna round: R107; input ligand: FMN 200 uM
Consider the following sequences and their measured apparent KD of K4 kissing-loop reporter readings.
Lab book: enter the figure in nM, no units written.

>  <entrySequence>
UGACUGGACUGAAGGAGCGCUAAACUCCUAGUGAUGUUAGGGAAACAAGACAAAGUCUUGAGGCAGGUAGGUCGCAGUCUAGUCU [FiskerMod 3 - Jieux - Same State - Arginine B]

>  <targetOfAssay>
K4 kissing-loop RNA reporter

>  <resultUnit>
nM

>  <apparent KD of K4 kissing-loop reporter>
287

$$$$
>  <entrySequence>
AACACUCACGGAGUGAUGUUCUGGAAUAAACGAGGACCGGUACGGCCGCCACUCGAAAAUGAGUGAGUCCUACGAAAAGUAGGAC [Omei inspired 4]

>  <targetOfAssay>
K4 kissing-loop RNA reporter;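 note: bound reporter read as fluorescence of individual clusters on recovered sequencing chips by microscopy, with normalized cluster intensities fitted with a binding model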

>  <resultUnit>
nM

>  <apparent KD of K4 kissing-loop reporter>
357

$$$$

Alright, here's another sequence for you.
QUERY: Would you mind telling me what apparent KD of K4 kissing-loop reporter value was observed for GUGAGGAUCAGAAGGAGCGUCGGCAAUCCAGUGAUGUUGGGUGUUGGUUAUAUUUAACGACGACAGGUAGGUCGCUGAUUUUCAA [Same State Arginie B GF 21] ?
RESULT: 163
